The following compounds are listed with their measured inhibition at 0.1 µM values.
Target: FAAH (Rattus norvegicus)
Construct: Preparation of Rat Brain Membranes Preparations (FAAH Enzyme Solution); from tissue; host or cells: rat cerebrum (brain membrane preparation)
Sequence (P97612 1-579): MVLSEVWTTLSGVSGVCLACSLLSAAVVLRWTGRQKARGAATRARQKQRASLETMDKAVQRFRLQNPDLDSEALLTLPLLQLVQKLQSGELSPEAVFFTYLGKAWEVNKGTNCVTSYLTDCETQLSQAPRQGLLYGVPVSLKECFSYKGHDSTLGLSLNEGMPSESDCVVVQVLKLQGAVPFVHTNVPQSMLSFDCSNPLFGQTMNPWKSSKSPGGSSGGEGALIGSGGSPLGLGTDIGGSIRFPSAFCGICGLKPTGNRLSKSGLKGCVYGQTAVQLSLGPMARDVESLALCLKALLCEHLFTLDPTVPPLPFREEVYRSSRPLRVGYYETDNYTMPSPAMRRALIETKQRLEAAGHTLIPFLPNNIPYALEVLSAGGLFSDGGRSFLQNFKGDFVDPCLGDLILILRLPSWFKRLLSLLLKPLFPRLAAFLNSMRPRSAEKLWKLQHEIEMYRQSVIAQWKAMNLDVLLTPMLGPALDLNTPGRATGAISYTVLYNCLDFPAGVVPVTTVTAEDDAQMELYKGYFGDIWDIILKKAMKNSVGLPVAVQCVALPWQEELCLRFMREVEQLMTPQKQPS
Assay: Determination of FAAH inhibitory activity in rat (rat brain membrane preparations, [3H]-anandamide hydrolysis)
Format: biochemical
Conditions: rat brain membrane preparations; 100 nM test substance; read-out: FAAH Inhibition, Inhibition Rate at 100 nM
Expressed in %, but write only the number.

Cn1c(=O)n(C(=O)N2CCCCCC2)c2cnc(-c3ccccc3)nc21 [Example 41]: 33
COc1cncc(-c2ncc3c(n2)n(C(=O)N2CCCC2)c(=O)n3C)c1 [Example 251]: 28
Cn1c(=O)n(C(=O)N2CCCC2)c2cnc(Cc3ccc(Cl)cc3)nc21 [Example 20]: 95

Turning now to a further compound:
Prompt line: I am curious: what inhibition at 0.1 µM value has been reported for COCCc1ncc2c(n1)n(C)c(=O)n2C(=O)N1CC(c2cccc(C(F)(F)F)c2)C1 [compound 393] ?
Response line: 101

====

The following compounds are listed with their measured IC50 values.
Target: FAAH (Rattus norvegicus, UniProt P97612)
Construct: Preparation of Rat Brain Membranes Preparations (FAAH Enzyme Solution); from tissue; host or cells: rat cerebrum (brain membrane preparation)
Sequence (P97612 1-579): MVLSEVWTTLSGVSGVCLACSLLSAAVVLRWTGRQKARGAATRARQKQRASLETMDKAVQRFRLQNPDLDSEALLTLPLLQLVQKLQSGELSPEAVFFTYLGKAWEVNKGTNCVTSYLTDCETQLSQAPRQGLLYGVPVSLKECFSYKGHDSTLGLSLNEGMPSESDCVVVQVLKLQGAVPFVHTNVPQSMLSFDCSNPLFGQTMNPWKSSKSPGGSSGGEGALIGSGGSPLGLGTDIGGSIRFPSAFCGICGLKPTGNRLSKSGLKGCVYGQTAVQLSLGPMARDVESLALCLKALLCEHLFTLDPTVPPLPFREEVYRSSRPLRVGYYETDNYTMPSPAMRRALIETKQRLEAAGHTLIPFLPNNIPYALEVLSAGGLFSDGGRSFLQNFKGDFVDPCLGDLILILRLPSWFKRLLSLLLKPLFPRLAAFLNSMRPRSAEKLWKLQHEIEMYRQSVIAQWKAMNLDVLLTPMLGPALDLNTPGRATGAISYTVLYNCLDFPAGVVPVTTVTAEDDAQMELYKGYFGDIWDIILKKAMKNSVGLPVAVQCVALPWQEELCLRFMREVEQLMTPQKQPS
Test: Determination of FAAH inhibitory activity in rat (rat brain membrane preparations, [3H]-anandamide hydrolysis)
Assay type: biochemical
Conditions: rat brain membrane preparations; test substance 0.1 nM to 1 μM; read-out: FAAH Inhibition IC50
Expressed in nM, but write only the number.

Use the examples below as a reference point.
COc1ccc(N2CCN(C(=O)n3c(=O)n(C)c4nc(-c5ccccc5)ncc43)CC2)cc1: 5
CN(C)C(=O)n1c(=O)n(C)c2cnc(CCc3ccc(C(F)(F)F)cc3)nc21: 17
COc1cccc(-c2ncc3c(n2)n(C)c(=O)n3C(=O)N2CCN(CCC3CCCCC3)CC2)c1: 9

Prompt line: Test system FAAH (Rattus norvegicus, UniProt P97612); read-out IC50; what value for `Cn1c(=O)n(C(=O)N2CCC2)c2cnc(-c3ccccc3)nc21` ?
Response line: 5

Prompt line: Test system FAAH (Rattus norvegicus, UniProt P97612); read-out IC50; what value for `Cn1c(=O)n(C(=O)N2CCCC2)c2cnc(C3=CCCCC3)nc21` ?
Response line: 25

Prompt line: Test system FAAH (Rattus norvegicus, UniProt P97612); read-out IC50; what value for `CCN(C)C(=O)n1c(=O)n(C)c2cnc(-c3cccc(C(F)F)c3)nc21` ?
Response line: 13

Prompt line: Test system FAAH (Rattus norvegicus, UniProt P97612); read-out IC50; what value for `Cc1ccccc1CCc1ncc2c(n1)n(C(=O)N1CCC1)c(=O)n2C` ?
Response line: 75

Prompt line: Test system FAAH (Rattus norvegicus, UniProt P97612); read-out IC50; what value for `Cn1c(=O)n(C(=O)N2CCC(c3ccccc3)CC2)c2cnc(-c3ccccc3)nc21` ?
Response line: 47

Reference source for all entries: patent US8735406B2
